All values here come from patent US6235717A.

Molecular target: endothelin converting enzyme (ECE) (Sus scrofa)
Sequence (F1SU04 entry or part of it): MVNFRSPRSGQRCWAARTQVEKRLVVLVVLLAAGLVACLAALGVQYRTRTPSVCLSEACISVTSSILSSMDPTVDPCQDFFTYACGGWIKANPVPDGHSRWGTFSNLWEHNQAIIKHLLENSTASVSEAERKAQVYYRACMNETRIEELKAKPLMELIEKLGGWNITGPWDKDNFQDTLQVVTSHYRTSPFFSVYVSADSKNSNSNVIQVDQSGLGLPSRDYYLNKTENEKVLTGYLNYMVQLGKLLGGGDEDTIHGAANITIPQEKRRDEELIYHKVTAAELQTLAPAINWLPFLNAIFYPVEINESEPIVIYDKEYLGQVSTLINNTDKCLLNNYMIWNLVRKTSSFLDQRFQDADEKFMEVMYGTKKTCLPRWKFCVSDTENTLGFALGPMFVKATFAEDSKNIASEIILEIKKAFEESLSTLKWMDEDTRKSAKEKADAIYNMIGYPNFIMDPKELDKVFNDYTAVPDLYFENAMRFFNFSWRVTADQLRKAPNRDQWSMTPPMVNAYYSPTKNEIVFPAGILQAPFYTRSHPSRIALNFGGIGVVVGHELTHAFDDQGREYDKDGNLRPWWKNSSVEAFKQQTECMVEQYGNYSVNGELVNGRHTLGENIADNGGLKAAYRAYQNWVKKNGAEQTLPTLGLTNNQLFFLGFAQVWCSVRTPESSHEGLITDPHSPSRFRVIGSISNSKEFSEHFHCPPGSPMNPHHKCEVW
Assay: "ECE" assay with porcine aortic "ECE" prep, fluorogenic substrate Suc-Ile-Ile-Trp-MCA
Format: biochemical
Details: porcine aortic endothelial cell ECE prep; 80 μM Suc-Ile-Ile-Trp-MCA; 15-20 min preincubation; overnight at 37° C.; pH 7.0; AMC fluorescence
Non-standard residues stand in square brackets, D forms with d. Residues, ends and D or L forms follow the SMILES beside them. ξ: configuration not given here. *: point of attachment. ξW = NC(Cc1c[nH]c2ccccc12)C(=O)O; Cbz = O=C(OCc1ccccc1)*
IC50 under 800 nM gets YES, anything at or over 800 nM gets NO.

Known results for compounds:
>  <COMPOUND>
NC(=O)NN=CC(Cc1c[nH]c2ccccc12)NC(=O)[C@H](Cc1c[nH]c2ccccc12)NC(=O)[C@H](Cc1c[nH]c2ccccc12)NC(=O)OCc1ccccc1 (some centres unmarked)

>  <CLASS LABEL>
YES

$$$$
>  <COMPOUND>
CC[C@H](C)[C@H](NC(C)=O)C(=O)N[C@H](C(=O)NC(C=O)Cc1c[nH]c2ccccc12)[C@@H](C)CC (stereo partly drawn) [Example 60] (Ac-Ile-Ile-[ξW]-aldehyde)

>  <CLASS LABEL>
NO

$$$$
>  <COMPOUND>
O=CC(Cc1c[nH]c2ccccc12)NC(=O)C(Cc1ccccc1)NC(=O)C(Cc1ccccc1)NC(=O)OCc1ccccc1 (stereo not drawn) [Example 32] (Cbz-Phe-Phe-Trp-aldehyde; configuration not given here)

>  <CLASS LABEL>
YES

$$$$

Query compound follows.
[Q] Just wondering, is IC50 of CC[C@H](C)[C@H](NC(=O)OCc1ccccc1)C(=O)N[C@H](C(=O)N[C@H](C=O)Cc1c[nH]c2ccccc12)[C@@H](C)CC [Example 15] (Cbz-Ile-Ile-Trp-aldehyde) below 800 nM?
[A] YES

---

Target: endothelin converting enzyme (ECE) (Sus scrofa)
Assay: "ECE" assay with porcine aortic "ECE" prep, fluorogenic substrate Suc-Ile-Ile-Trp-MCA
Format: biochemical
Conditions: porcine aortic endothelial cell ECE prep; 80 μM Suc-Ile-Ile-Trp-MCA; 15-20 min preincubation; overnight at 37° C.; pH 7.0; AMC fluorescence
Non-standard residues stand in square brackets, D forms with d. Residues, ends and D or L forms follow the SMILES beside them. ξ: configuration not given here. *: point of attachment. ξW = NC(Cc1c[nH]c2ccccc12)C(=O)O; MeOSuc = COC(=O)CCC(=O)*; Cbz = O=C(OCc1ccccc1)*; Pentanoyl = CCCCC(=O)*
Measured IC50, listed per entry.
Report the figure in µM without appending any unit label.

# annotated cases, reported IC50 shown
>  <MOLECULE>
C[C@H](NC(=O)OCc1ccccc1)C(=O)N[C@@H](Cc1ccccc1)C(=O)N[C@H](C=O)Cc1c[nH]c2ccccc12 [Example 26] (Cbz-Ala-Phe-Trp-aldehyde)

>  <OUTCOME MEASURE>
IC50

>  <MEASURE UNIT>
µM

>  <ENDPOINT VALUE>
1.5

$$$$
>  <MOLECULE>
CC[C@H](C)[C@H](NC(=O)CCC(=O)OC)C(=O)N[C@H](C(=O)NC(C=O)Cc1c[nH]c2ccccc12)[C@@H](C)CC (stereo partly drawn) [Example 74] (MeOSuc-Ile-Ile-[ξW]-aldehyde)

>  <OUTCOME MEASURE>
IC50

>  <MEASURE UNIT>
µM

>  <ENDPOINT VALUE>
0.08

$$$$
>  <MOLECULE>
CC[C@H](C)[C@H](NC(=O)OCc1ccccc1)C(=O)N[C@@H](Cc1c[nH]c2ccccc12)C(=O)N[C@H](C=O)Cc1c[nH]c2ccccc12 [Example 30] (Cbz-Ile-Trp-Trp-aldehyde)

>  <OUTCOME MEASURE>
IC50

>  <MEASURE UNIT>
µM

>  <ENDPOINT VALUE>
0.2

$$$$

[Q] Give its IC50 value. Item: CC[C@H](C)[C@H](NC(=O)OCc1ccccc1)C(=O)N[C@H](C(=O)NC(Cc1c[nH]c2ccccc12)NC(=O)COC(C)=O)[C@@H](C)CC (some centres unmarked) [Example 80]
[A] 10

[Q] Give its IC50 value. Item: CC[C@H](C)[C@H](NC(=O)CCCCCNC(=O)CCCCCNC(=O)c1cc(=O)[nH]c(=O)[nH]1)C(=O)N[C@H](C(=O)NC(C=O)Cc1c[nH]c2ccccc12)[C@@H](C)CC (some centres unmarked) [Example 69]
[A] 0.06

[Q] Give its IC50 value. Item: CCC(C)C(NC(=O)OCc1ccccc1)C(=O)NC(Cc1ccccc1)C(=O)NC(C=O)Cc1c[nH]c2ccccc12 (stereo not drawn) [Example 27] (Cbz-Ile-Phe-Trp-aldehyde; configuration not given here)
[A] 0.5

[Q] Give its IC50 value. Item: CC[C@H](C)[C@H](NC(=O)CC(c1ccccc1)c1ccccc1)C(=O)N[C@H](C(=O)NC(C=O)Cc1c[nH]c2ccccc12)[C@@H](C)CC (some centres unmarked) [Example 58]
[A] 0.1

[Q] Give its IC50 value. Item: CCCCC(=O)N[C@H](C(=O)N[C@H](C(=O)NC(C=O)Cc1c[nH]c2ccccc12)[C@@H](C)CC)[C@@H](C)CC (stereo partly drawn) [Example 72] (Pentanoyl-Ile-Ile-[ξW]-aldehyde)
[A] 0.15

[Q] Give its IC50 value. Item: COC(OC)C(Cc1c[nH]c2ccccc12)NC(=O)[C@H](Cc1c[nH]c2ccccc12)NC(=O)[C@H](Cc1c[nH]c2ccccc12)NC(=O)CCCCCNC(=O)CCCCC1SCC2NC(=O)NC21 (some centres unmarked) [Example 78]
[A] 10

[Q] Give its IC50 value. Item: COC(OC)[C@H](Cc1c[nH]c2ccccc12)NC(=O)[C@H](Cc1cccc2ccccc12)NC(=O)[C@H](Cc1ccc(Br)cc1)NC(=O)CCCCC1SCC2NC(=O)NC21 (some centres unmarked) [Example 92]
[A] 1
